System: E. faecalis ATCC 29212 VSE
Experiment: MIC broth microdilution
Type: cell-based
Conditions: Enterococcus faecalis, ATCC29212; E. faecalis ATCC 29212 VSE; CAMHB; read-out: MIC
readoutKind: MIC (µg/mL)
Number in µg/mL, nothing else.

*Q* Returns the measured MIC for the input compound. Input: C=C(NC(=O)c1csc(C2=N[C@@H]3c4csc(n4)[C@H]4NC(=O)c5csc(n5)[C@H]([C@](C)(O)[C@@H](C)O)NC(=O)C5CSC(=N5)/C(=C/C)NC(=O)[C@H]([C@@H](C)O)NC(=O)c5csc(n5)[C@]3(CC2)NC(=O)[C@H](C)NC(=O)C(=C)NC(=O)[C@H](C)NC(=O)[C@H]([C@@H](C)CC)N[C@@H]2C=Cc3c([C@H](C)O)cc(nc3[C@H]2O)C(=O)O[C@@H]4C)n1)C(=O)NC(=CNC(=O)c1ccc(Br)cc1)C(N)=O [RJS-08]
*A* 0.5

*Q* Returns the measured MIC for the input compound. Input: C=C(NC(=O)c1csc(C2=N[C@@H]3c4csc(n4)[C@H]4NC(=O)c5csc(n5)[C@H]([C@](C)(O)[C@@H](C)O)NC(=O)C5CSC(=N5)/C(=C/C)NC(=O)[C@H]([C@@H](C)O)NC(=O)c5csc(n5)[C@]3(CC2)NC(=O)[C@H](C)NC(=O)C(=C)NC(=O)[C@H](C)NC(=O)[C@H]([C@@H](C)CC)N[C@@H]2C=Cc3c([C@H](C)O)cc(nc3[C@H]2O)C(=O)O[C@@H]4C)n1)C(=O)NC(=CNC(=O)COC)C(N)=O [RJS-06]
*A* 1

----------
Below, each entry is listed alongside its reported MIC.
Tested on: E. faecium MMX 485 VRE
Assay: MIC broth microdilution
Format: cell-based
Conditions: Enterococcus faecium, VRE
Number in µg/mL, nothing else.

The examples below pair each entry with its known result.
>>> measvalue("C=C(NC(=O)C(=C)NC(=O)c1csc(C2=N[C@@H]3c4csc(n4)[C@H]4NC(=O)c5csc(n5)[C@H]([C@](C)(O)[C@@H](C)O)NC(=O)[C@H]5CSC(=N5)/C(=C/C)NC(=O)[C@H]([C@@H](C)O)NC(=O)c5csc(n5)[C@]3(CC2)NC(=O)[C@H](C)NC(=O)C(=C)NC(=O)[C@H](C)NC(=O)[C@H]([C@@H](C)CC)N[C@@H]2C=Cc3c([C@H](C)O)cc(nc3[C@H]2O)C(=O)O[C@@H]4C)n1)C(N)=O")
0.06
>>> measvalue("C=C(NC(=O)c1csc(C2=N[C@@H]3c4csc(n4)[C@H]4NC(=O)c5csc(n5)[C@H]([C@](C)(O)[C@@H](C)O)NC(=O)C5CSC(=N5)/C(=C/C)NC(=O)[C@H]([C@@H](C)O)NC(=O)c5csc(n5)[C@]3(CC2)NC(=O)[C@H](C)NC(=O)C(=C)NC(=O)[C@H](C)NC(=O)[C@H]([C@@H](C)CC)N[C@@H]2C=Cc3c([C@H](C)O)cc(nc3[C@H]2O)C(=O)O[C@@H]4C)n1)C(=O)NC(=CNC(=O)c1ccccc1)C(N)=O")
0.5

Okay, next one:
*Q* Returns the measured MIC for the input compound. Input: C=C(NC(=O)c1csc(C2=N[C@@H]3c4csc(n4)[C@H]4NC(=O)c5csc(n5)[C@H]([C@](C)(O)[C@@H](C)O)NC(=O)C5CSC(=N5)/C(=C/C)NC(=O)[C@H]([C@@H](C)O)NC(=O)c5csc(n5)[C@]3(CC2)NC(=O)[C@H](C)NC(=O)C(=C)NC(=O)[C@H](C)NC(=O)[C@H]([C@@H](C)CC)N[C@@H]2C=Cc3c([C@H](C)O)cc(nc3[C@H]2O)C(=O)O[C@@H]4C)n1)C(=O)NC(=CNC(=O)c1ccc(OC)cc1)C(N)=O
*A* 1

Data origin: patent US20220315624A1
